# STUDY TARGET: FKBP12 and mTOR (Homo sapiens, UniProt P42345+P62942)
# Construct: host or cells: HeLa cells
# Sequence (P42345 2025-2114 limits assumed): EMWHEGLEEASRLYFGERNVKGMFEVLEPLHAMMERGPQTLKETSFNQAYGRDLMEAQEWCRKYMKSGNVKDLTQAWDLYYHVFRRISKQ
# Sequence (P62942 whole entry): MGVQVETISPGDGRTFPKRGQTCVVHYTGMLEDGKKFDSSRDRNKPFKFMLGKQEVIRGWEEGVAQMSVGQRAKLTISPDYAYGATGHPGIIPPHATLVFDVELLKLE
# EXPERIMENTAL PROTOCOL: Fluoppi analysis: induction of FKBP12-mTOR complex formation in transfected HeLa cells
# Type: cell-based
# ASSAY SETUP: Fluoppi, HeLa cells, 1 h treatment; three independent biological replicates; read-out: EC50, induction of the formation of FKBP-mTOR complex
RECORDED METRIC: EC50 (nM)

CO[C@@H]1C[C@H](C[C@@H](C)[C@@H]2CC(=O)[C@H](C)/C=C(\C)[C@@H](O)[C@@H](OC)C(=O)[C@H](C)C[C@H](C)/C=C/C=C/C=C(\C)[C@H](O)C[C@@H]3CC[C@@H](C)[C@@](O)(O3)C(=O)C(=O)N3CCCC[C@H]3C(=O)O2)CC[C@H]1O [Compound 17, (16R)-16-O-demethyl rapamycin] | 58

[a] COC1CC2CCC(C)C(O)(O2)C(=O)C(=O)N2CCCCC2C(=O)OC(C(C)CC2CCC(O)C(OC)C2)CCC(C)C=C(C)C(O)C(OC)C(=O)C(C)CC(C)C=CC=CC=C1C (stereo not shown)
[b] COC1CC2CCC(C)C(O)(O2)C(=O)C(=O)N2CCCCC2C(=O)OC(C(C)CC2CCC(O)C(OC)C2)CC(O)CC(=O)C(C)C=C(C)C(O)CC(=O)C(C)CC(C)C=CC=CC=C1C (stereo not shown)
From the recorded data, which exceeds the other in EC50: a or b ? API: response body contains the label of the selected item. b
(b: 73 nM, a: 38 nM)
